System: CU-ACC1
Experiment: area under concentration-response curve (viability) (AUC (a.u.)); higher = less active
Details: 48 h
measurement-name: area under concentration-response curve
Number, no unit, nothing else.

>>> observed_value("CC(=O)NCCC(=O)N[C@@H](CCC(N)=O)C(=O)N[C@@H](CO)C(=O)N[C@@H](CCC(N)=O)C(=O)N[C@@H](CCC(N)=O)C(=O)N[C@H](C(=O)N[C@@H](Cc1ccccc1)C(=O)N[C@]1(C)CCCCCC/C=C\\CCC[C@@](C)(C(=O)N[C@@H](CCC(N)=O)C(=O)N[C@@H](CC(N)=O)C(N)=O)NC(=O)[C@H](CC(C)C)NC(=O)[C@H](CC(C)C)NC(=O)[C@@H](CCCNC(=N)N)NC(=O)[C@H](Cc2c[nH]c3ccccc23)NC(=O)[C@H](CC(C)C)NC(=O)[C@H](CC(N)=O)NC1=O)[C@H](C)O")
425
>>> observed_value("O=C1CC(c2c[nH]c3ccc(F)cc23)C(=O)N1 (stereo not given)")
465
>>> observed_value("COC1=C(OC)C=C\\2C(=C1)C(=O)N(CCCNCCO)\\C3=C2C(=O)C4=C3C=C5OCOC5=C4")
364
>>> observed_value("NCC(=O)NC1=CC(=CN=C1)\\C2=N\\N/3C(=O)\\C=C(/N=C3S2)N4CCNCC4")
269

Incoming: Endpoint output: area under concentration-response curve of CCCCn1c(=O)n(Cc2ccccc2F)c(=O)c2nc(Cc3ccc(NC(C)=O)cc3)[nH]c21 . Value?
Outgoing: 491
